Assay: Hemolytic activity in human red blood cells at 400 ug/ml incubated for 45 mins by spectrophotometric analysis relative to control
Assay type: toxicity, cell-based, Erythrocyte
Details: red blood cells (erythrocytes), at 400 µg/mL, read-out: Activity
Form field: hemolysis at 0.75 h, 400 ug/ml (one value per entry).
The response must be a number in % with no trailing unit.

{"columns": ["molecular-string", "readout-units", "hemolysis at 0.75 h, 400 ug/ml"],
 "data": [
  ["CC[C@H](C)[C@@H](NC(=O)[C@@H](NC(=O)[C@H](CCC(=O)O)NC(=O)[C@H](Cc1ccccc1)NC(=O)[C@@H](CCN)NC(=O)[C@H](CCN)NC(=O)[C@H](CO)NC(=O)[C@@H](Cc1c[nH]c2ccccc12)NC(=O)[C@@H](CO)NC(=O)CNC(=O)[C@@H](CCN)NC(=O)[C@H](NC(=O)C(C)(C)N)C(C)C)C(C)C)C(=O)N[C@@H](C)C(=O)O", "%", 8.5]
]}

The record that follows has no hemolysis at 0.75 h, 400 ug/ml shown yet.
[ask] For the compound `CC[C@H](C)[C@@H](NC(=O)[C@@H](NC(=O)[C@H](CCC(=O)O)NC(=O)[C@H](C)NC(=O)[C@@H](CCN)NC(=O)[C@H](CCN)NC(=O)[C@H](CO)NC(=O)[C@@H](Cc1c[nH]c2ccccc12)NC(=O)[C@@H](CO)NC(=O)CNC(=O)[C@@H](CCN)NC(=O)[C@H](NC(=O)[C@H](C)N)C(C)C)C(C)C)C(=O)N[C@@H](C)C(=O)O` , give its reported hemolysis at 0.75 h, 400 ug/ml.
[reply] 0
